target: Mu opioid receptor (MOR); assay: cell-based or functional assay
Sequence (P35372 whole entry): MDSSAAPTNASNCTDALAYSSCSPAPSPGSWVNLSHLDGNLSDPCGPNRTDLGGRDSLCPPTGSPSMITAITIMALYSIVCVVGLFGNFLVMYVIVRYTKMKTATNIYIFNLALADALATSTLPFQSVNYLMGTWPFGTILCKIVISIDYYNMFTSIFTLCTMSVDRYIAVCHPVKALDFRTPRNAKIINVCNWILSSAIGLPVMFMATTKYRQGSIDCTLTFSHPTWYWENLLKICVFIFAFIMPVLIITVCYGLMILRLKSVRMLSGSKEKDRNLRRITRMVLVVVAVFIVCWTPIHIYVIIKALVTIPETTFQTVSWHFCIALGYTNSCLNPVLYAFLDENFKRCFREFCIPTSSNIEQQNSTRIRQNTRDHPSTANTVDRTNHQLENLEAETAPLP
Square brackets hold non-standard residues; d marks the D form. Phe(4-NO2) = N[C@@H](Cc1ccc([N+](=O)[O-])cc1)C(=O)O; GABA = NCCCC(=O)O; Sar = CNCC(=O)O
# cutoff -1 applies to cAMP assay (ALPHAScreen), result at 1 µM peptide; >= gives true, < gives false

For orientation, consider the following solved cases.
[[record]]
binder = "H-Y[Sar]FLRR-NH2 [SEQ ID NO. 2: NH2-Tyr-Sar-Phe-Leu-Arg-Arg-NH2]"
label = "false"

[[record]]
binder = "H-Y[Sar][Phe(4-NO2)]L[dR]R-NH2 [SEQ ID NO. 5: NH2-Tyr-Sar-(4-NO2)Phe-Leu-DArg-Arg-NH2]"
label = "true"

[[record]]
binder = "H-Y[Sar]FL[dR][dR]-NH2 [SEQ ID NO. 7: NH2-Tyr-Sar-Phe-Leu-DArg-DArg-NH2]"
label = "true"

[[record]]
binder = "H-Y[GABA]FLRR-NH2 (SMILES CC(C)C[C@H](NC(=O)[C@H](Cc1ccccc1)NC(=O)CCCNC(=O)[C@@H](N)Cc1ccc(O)cc1)C(=O)N[C@@H](CCCNC(=N)N)C(=O)N[C@@H](CCCNC(=N)N)C(N)=O) [SEQ ID NO. 1: NH2-Tyr-Gaba-Phe-Leu-Arg-Arg-NH2]"
label = "false"

[[record]]
binder = "H-Y[Sar][Phe(4-NO2)]LR[dR]-NH2 [SEQ ID NO. 4: NH2-Tyr-Sar-(4-NO2)Phe-Leu-Arg-DArg-NH2]"
label = "true"

[[record]]
binder = "H-F[Sar][Phe(4-NO2)]L[dR][dR]-NH2 (SMILES CC(C)C[C@H](NC(=O)[C@H](Cc1ccc([N+](=O)[O-])cc1)NC(=O)CN(C)C(=O)[C@@H](N)Cc1ccccc1)C(=O)N[C@H](CCCNC(=N)N)C(=O)N[C@H](CCCNC(=N)N)C(N)=O) [SEQ ID NO. 9: NH2-Phe-Sar-(4-NO2)Phe-Leu-DArg-DArg-NH2]"
label = "true"


Turning now to a further record.
Record H-Y[Sar]FL[dR]R-NH2 [SEQ ID NO. 6: NH2-Tyr-Sar-Phe-Leu-DArg-Arg-NH2] ; criterion: cAMP assay (ALPHAScreen), result at 1 µM peptide no lower than -1. Met?
true
